The following variants are listed with their measured protein stability index values.
B1: NCK2 (parent)
chain: YTGPSSSGRFAGREWYYGNVTRHQ

Variants of: B1
Assay: protein stability index of a GFP-peptide fusion (GPS, HEK-293T) (PSI 1-6); higher = more stable;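 further: lentivirally expressed fusions sorted by FACS into six bins by GFP to DsRed ratio, PSI derived from sequencing read proportions per bin multiplied by bin number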
Conditions: c terminus: a fixed tail appended

Variant Code	protein stability index
H23C	1.07
G18N	2.49
F10W	3.07
E14C	3.32

Now for the variant whose protein stability index we want.
Incoming: Please supply the value of reported protein stability index for the item Q24G
Outgoing: 1.56
